# pest or weed control at 0.02 % strength values compiled below
- System: Botrytis cinerea
- ASSAY_METHOD_TEXT: Example B-7: Botrytis cinerea / grape (Botrytis on grapes)
- Type: in vivo
- CONDITION_INFO: 72 h, 0.02% active substance, spray, grape seedlings cv. Gutedel, inoculated two days after application, assessed after 3 days incubation, read-out: control of the fungal infection
ATTRIBUTE_MEASURED: pest or weed control at 0.02 % strength

{"MOLECULE": "CC1=NN(c2cc(-c3ccnc(Nc4cccc(Cl)c4)n3)ccn2)C(=O)C1(C)C", "ATTRIBUTE_MEASURED": "pest or weed control at 0.02 % strength", "ENDPOINT_VALUE": "> 70%"}
{"MOLECULE": "CCC1(C)C(=O)N(c2cc(-c3ccnc(Nc4cccc(Cl)c4)n3)ccn2)N=C1C (centres unmarked)", "ATTRIBUTE_MEASURED": "pest or weed control at 0.02 % strength", "ENDPOINT_VALUE": "> 70%"}
{"MOLECULE": "CC1=NN(c2cc(-c3ccnc(Nc4cccc(Cl)c4)n3)ccn2)C(=S)C1(C)C", "ATTRIBUTE_MEASURED": "pest or weed control at 0.02 % strength", "ENDPOINT_VALUE": "> 70%"}
{"MOLECULE": "CC1=NN(c2cc(-c3ccnc(Nc4cccc(Cl)c4)n3)ccn2)C(=O)C12CC2", "ATTRIBUTE_MEASURED": "pest or weed control at 0.02 % strength", "ENDPOINT_VALUE": "> 70%"}
{"MOLECULE": "CC1(C)C=NN(c2cc(-c3ccnc(Nc4cccc(Cl)c4)n3)ccn2)C1=O", "ATTRIBUTE_MEASURED": "pest or weed control at 0.02 % strength", "ENDPOINT_VALUE": "> 70%"}
{"MOLECULE": "COc1c(C)cnn1-c1cc(-c2ccnc(Nc3cccc(Cl)c3)n2)ccn1", "ATTRIBUTE_MEASURED": "pest or weed control at 0.02 % strength", "ENDPOINT_VALUE": "> 70%"}
{"MOLECULE": "Cc1cn(C)n(-c2cc(-c3ccnc(Nc4cccc(Cl)c4)c3)ccn2)c1=O", "ATTRIBUTE_MEASURED": "pest or weed control at 0.02 % strength", "ENDPOINT_VALUE": "> 70%"}
{"MOLECULE": "COCc1cc(OC)n(-c2cc(-c3ccnc(Nc4cccc(Cl)c4)n3)ccn2)n1", "ATTRIBUTE_MEASURED": "pest or weed control at 0.02 % strength", "ENDPOINT_VALUE": "> 70%"}

Reference for the values: patent US7205301B2
